Data provenance: ChEMBL document CHEMBL1129501

- Measurement target: Phosphodiesterase 1 (Homo sapiens, UniProt P54750+Q01064+Q14123)
- Method summary: Inhibitory activity against calmodulin-dependent Phosphodiesterase was reported.
- Format: protein assay, Canis lupus familiaris
Measured quantity: IC50 (nM)
One number for each entry, in nM.

Sample answers from the record:
| Compound structure string | Unit annotation | Result value |
| --- | --- | --- |
| CC/C(=C(\c1ccc(I)cc1)c1ccc(OCCCN(C)C)cc1)c1ccccc1 | nM | 2000 |
| CC/C(=C(\c1ccc(I)cc1)c1ccc(OCCN2CCCC2)cc1)c1ccccc1 | nM | 1500 |
| CC/C(=C(\c1ccc(I)cc1)c1ccc(OCCCCCCCCCN2CCCC2)cc1)c1ccccc1 | nM | 200 |

Please state, for each entry, its recorded IC50.
1. CC/C(=C(\c1ccc(I)cc1)c1ccc(OCCCCCCCCCCN(C)C)cc1)c1ccccc1
2. CC/C(=C(\c1ccc(I)cc1)c1ccc(OCCCCCCCCN(C)C)cc1)c1ccccc1
3. CC/C(=C(\c1ccc(I)cc1)c1ccc(OCCN(C)C)cc1)c1ccccc1
4. CC/C(=C(\c1ccc(I)cc1)c1ccc(OCCCCN2CCCC2)cc1)c1ccccc1
5. CC/C(=C(\c1ccc(I)cc1)c1ccc(OCCCCCCCN2CCCC2)cc1)c1ccccc1

1: 1200; 2: 300; 3: 2300; 4: 1000; 5: 200
